FYI, the data here is from the supplement of paper PMC7125110.

Each entry below carries its reported self-cleavage kobs at 40 uM GlcN6P.
B1: glmS ribozyme (parent)
chain: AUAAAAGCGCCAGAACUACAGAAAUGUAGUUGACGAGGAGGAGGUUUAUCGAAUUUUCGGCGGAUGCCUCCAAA

variants of: B1; test: self-cleavage kobs at 40 uM GlcN6P; higher = faster cleavage; RNA array; conditions: with glucosamine-6-phosphate
Fewer inactive variants are shown than the library holds.
Report as a plain number; the unit s⁻¹ is understood.

1. U69C C70U; 5.3e-05

Exam item: I would be grateful if you could share the reported self-cleavage kobs at 40 uM GlcN6P for U30G C70U .
Marked response: 0.000299
